Test system: KM12 colon
Assay procedure: NCI-60 one-dose screen, 48 h
Assay conditions: 10 µM unless noted
The panel holds about 83,000 compounds, 20% with a hit somewhere; the sample as a whole holds those more often. Active and inactive are the calls of the source. How the source made its calls: active means growth percent below 10; inactive means the rest.
Use one of these outcomes when replying: active, inactive

Here are 4 compounds together with their reported answers.
[
  {
    "Compound": "C[C@@H]1CCC[C@H]1CC(N)C(=O)O (stereo not given in full)",
    "Measured on": "KM12 colon",
    "Label class": "inactive"
  },
  {
    "Compound": "CCN(CC)CCOc1ccc(C(=C(C)c2ccc(Cl)cc2)c2ccc(OCCN(CC)CC)cc2)cc1",
    "Measured on": "KM12 colon",
    "Label class": "active"
  },
  {
    "Compound": "CCCCCCCCn1ccc2cc(NC(=O)CN3CCN(c4nc(C)cc(Cl)n4)CC3)ccc21",
    "Measured on": "KM12 colon",
    "Label class": "inactive"
  },
  {
    "Compound": "COc1ccc(-c2ccc3cnc4sc(-c5ccc(OC)cc5)nc4c3n2)cc1",
    "Measured on": "KM12 colon",
    "Label class": "inactive"
  }
]

query: Recorded call for CN(C)CCCC1(c2ccc(F)cc2)OCc2cc(-c3cncc4ccccc34)ccc21 (stereo not given) ?
result: inactive

query: Recorded call for "c1ccc(CNc2c3ccccc3nc3ccccc23)cc1" ?
result: inactive

query: Recorded call for "O=C(Cn1cc(CN2C(=O)c3ccccc3S2(=O)=O)nn1)Nc1nc2ccccc2s1" ?
result: inactive

query: Recorded call for "COc1ccc(C(=O)Nc2ncc(Cc3cccc(Cl)c3)s2)cc1OC" ?
result: inactive

query: Recorded call for "C=CC(=O)NCc1ccc(Nc2nccc(-c3ccc(N4CCCC4)c(C#N)c3)n2)cc1" ?
result: inactive

query: Recorded call for O=S(=O)(Nc1ccccc1)c1ccc(C2CC3(Cl)C(Cl)=C(Cl)C2(Cl)C3(Cl)Cl)cc1 (stereo not given) ?
result: inactive
